- study_target: T1, HLA-A2/NY-ESO peptide complex presented on cells (human)
- T1 construct: whole, on cells; also called HLA/NY-ESO; T2 cells supplemented with the NY-ESO peptide
- assay_name: flow cytometry on peptide-pulsed T2 cells, scFv 100 nM;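 note: scFv binding read as gMFI and normalized to the level of HLA/peptide complex displayed on T2 cells, with homologous 9-mer peptides used to probe specificity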

binder: NYA-2045 (scFv, also called NYA-2045 tag adduct) scFv: GEVQLVESGGGLVQPGGSLRLSCAASGFSIRSYDIHWVRLAPGKGLEWVATISYDGSQKYYADSVKGRFTISRDESKNTLYLQMNSLRAEDTAVYHCARGSSGHYEAFDIWGQGTLVTVSSGGGGSGGGGSGGGGSQSVLTQPPSASGTPGQRVTISCSGSSSNIGNWYVSWYQQLPGTAPKLLIYDNNKRPSGVPDRFSGSKSGTSASLAISGLQSEDEADYYCGTWDSSLSAPWVFGGGTKLTVLGAAAGAGGDYKDDDDKGAAAHHHHHH
standardized gMFI: 13.8
--
binder: NYA-2047 (scFv) scFv: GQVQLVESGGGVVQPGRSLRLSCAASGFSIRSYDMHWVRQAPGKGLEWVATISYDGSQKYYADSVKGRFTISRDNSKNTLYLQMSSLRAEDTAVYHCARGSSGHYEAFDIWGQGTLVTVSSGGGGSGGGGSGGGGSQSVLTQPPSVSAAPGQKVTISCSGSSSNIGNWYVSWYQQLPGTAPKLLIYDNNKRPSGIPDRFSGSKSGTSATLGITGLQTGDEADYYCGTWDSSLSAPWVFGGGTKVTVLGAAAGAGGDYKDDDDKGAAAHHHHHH
standardized gMFI: 10.2
